- Test system: two spotted mite (Tetranychus urticae Koch)
- assay.notes: Mite Foliage Spray Test
- Type: in vivo
- Design: key: A: Excellent control; B: Partial control; C: No control
- condition.context: 500 ppm foliage spray, six days

{"columns": ["smiles.code", "Mite pesticidal activity rating"],
 "data": [
  ["CNC(=O)ON=C1CSC(=CC(C)=O)S1", "C"],
  ["CNC(=O)ON=C1SC(=NC#N)SC1(C)C", "C"],
  ["CN=C1SC(=NOC(=O)NC)C(C)(C)S1", "A"],
  ["CN(SC(Cl)(Cl)Cl)C(=O)ON=C1SC(=NC#N)SC1(C)C", "C"],
  ["CC(C)N=C1SC(=NOC(=O)N(C)SN(C)C(=O)ON=C2SC(=NC(C)C)SC2(C)C)C(C)(C)S1", "C"],
  ["CNC(=O)ON=C1SC(=C[N+](=O)[O-])SC1(C)C", "C"],
  ["CN=C1SC(=NOC(=O)N(C)SC(Cl)(Cl)Cl)C(C)(C)S1", "A"],
  ["CNC(=O)ON=C1SC(=NC(C)C)SC1(C)C", "A"],
  ["CN(SSc1ccc(C(C)(C)C)cc1)C(=O)ON=C1SC(=C(C#N)C#N)SC1(C)C", "C"],
  ["CN(SN(C)C(=O)ON=C1SC(=C(C#N)C#N)SC1(C)C)C(=O)ON=C1SC(=C(C#N)C#N)SC1(C)C", "C"],
  ["CNC(=O)ON=C1SC(=C(C#N)c2ccccc2)SC1(C)C", "C"],
  ["CNC(=O)ON=C1SC(=NC(C)(C)C)SC1(C)C", "A"],
  ["CNC(=O)ON=C1SC(=NC2CCCCC2)SC1(C)C", "B"],
  ["CNC(=O)ON=C1SC(=C(C#N)C#N)SC1(C)C", "C"],
  ["CN(SC(Cl)(Cl)Cl)C(=O)ON=C1SC(=NS(C)(=O)=O)SC1(C)C", "C"],
  ["CNC(=O)ON=C1SC(=NN(C)C)SC1(C)C", "A"],
  ["CNC(=O)ON=C1SC(=NS(=O)(=O)c2ccc(C)cc2)SC1(C)C", "C"],
  ["CN(SSC(C)(C)C)C(=O)ON=C1SC(=C(C#N)C#N)SC1(C)C", "C"],
  ["CCCCN=C1SC(=NOC(=O)N(C)SC(Cl)(Cl)Cl)C(C)(C)S1", "A"],
  ["Cc1ccc(S(=O)(=O)N=C2SC(=NOC(=O)N(C)SC(Cl)(Cl)Cl)C(C)(C)S2)cc1", "C"],
  ["CN(Sc1ccc(C(C)(C)C)cc1)C(=O)ON=C1SC(=C(C#N)C#N)SC1(C)C", "B"]
]}

Numbers sourced from patent US4156731A.
